Provide the reported clearance of each item.
assay: Pharmacokinetic experiment in rats, intravenous injection and oral administration; type: in vivo; settings: rat, plasma; male Sprague Dawley rats, intravenous administration 1 mg/kg
One number for each entry, in mL/min/kg.

INSERT INTO results (molecule, output_unit, measured_number) VALUES
  ('Nc1ccc(-c2nc(F)c([C@@H]3[C@H]4C[C@H]4c4cc(-c5cc(Cl)ccc5-n5cnnn5)cc(=O)n43)[nH]2)c(F)n1 [Embodiment 36]', 'mL/min/kg', 2.66);

Consider the record given below.
Which clearance value belongs to O=C1CCc2c(ccc(-c3cnc([C@@H]4[C@H]5C[C@H]5c5nc(-c6cc(Cl)ccc6-n6cc(Cl)nn6)cc(=O)n54)[nH]3)c2F)N1 [Embodiment 90] ? 0.63
